The values you see were collected from patent US20240025971A1.

Biological target: SARS-CoV-2 Spike (S) trimer (SARS-CoV-2), P0DTC2
Test: ELISA, S trimer coated, 1:50 dilution
Settings: remark: other sources report otherwise
measured_attribute: Optical Density (OD; 450 nm)
Give the value; after it, write the unit.

AB-009231 (antibody, V domains shown) VH: EVQLVESGGGLVQPGGSLRLSCAASGFTFSSYWMSWVRQAPGKGLEWVANIKQDGSEKYYVDSVKGRFTISRDNAKNSLYLQMNSLRAEDTAVYYCARVSMRFLEWSFYYYYYMDVWGKGTTVTVSS VL: SSELTQDPAVSVALGQTVRITCQGDSLRSYYASWYQQKPGQAPVLVIYGKNNRPSGIPDRFSGSSSGNTASLTITGAQAEDEADYYCNSRDSSGNHLGVVFGGGTKLTVL
0.46 OD450

## Task Return reported Optical Density (OD; 450 nm); argument: AB-009237 (antibody, V domains shown) VH: QVQLLQSGAEVKKPGASVSVSCKASGFTFTSYYFHWVRQAPGQGLEWMGIVSPAGGSTNYAQKFQGRVTMTRDTSTSTVHMELRNVRYDDTAVFYCARSVYCSSPSCPHGMDVWGPGTMVTVSS VL: DIQVTQSPSTLSASVGDRVTITCRASQSILTYLAWYQQKPGKAPNLLIYKASNLQSGVPSRFSGSGSGTEFTLTISSLQPDDFATYHCQQYKSYPFSFGQGTKLAIK
## Result 0.228 OD450

## Task Return reported Optical Density (OD; 450 nm); argument: AB-009174 (antibody, V domains shown) VH: QVQLQQWGAGLLKPSETLSLTCAVYGESFSGYYWNWIRQPPGKGLEWIGEIDQSGSTNYNPSLKSRVTISVDTSKNQFSLKLTSVTAADTAVYYCARVSGRMQLWLRAGYMDVWDKGTTVTVSS VL: QSALTQPASVSGSPGQSITISCTGTSSDVGRYNYVSWYQQHPGKAPKLMIYEVSNRPSGVSNRFSGSKSGNTASLTISGLQAEDEADYYCSSYTTSSTRVFGGGTKLTVL
## Result 0.154 OD450
